Biological target: UniProtKB Q64663
Sequence (Q64663 whole entry): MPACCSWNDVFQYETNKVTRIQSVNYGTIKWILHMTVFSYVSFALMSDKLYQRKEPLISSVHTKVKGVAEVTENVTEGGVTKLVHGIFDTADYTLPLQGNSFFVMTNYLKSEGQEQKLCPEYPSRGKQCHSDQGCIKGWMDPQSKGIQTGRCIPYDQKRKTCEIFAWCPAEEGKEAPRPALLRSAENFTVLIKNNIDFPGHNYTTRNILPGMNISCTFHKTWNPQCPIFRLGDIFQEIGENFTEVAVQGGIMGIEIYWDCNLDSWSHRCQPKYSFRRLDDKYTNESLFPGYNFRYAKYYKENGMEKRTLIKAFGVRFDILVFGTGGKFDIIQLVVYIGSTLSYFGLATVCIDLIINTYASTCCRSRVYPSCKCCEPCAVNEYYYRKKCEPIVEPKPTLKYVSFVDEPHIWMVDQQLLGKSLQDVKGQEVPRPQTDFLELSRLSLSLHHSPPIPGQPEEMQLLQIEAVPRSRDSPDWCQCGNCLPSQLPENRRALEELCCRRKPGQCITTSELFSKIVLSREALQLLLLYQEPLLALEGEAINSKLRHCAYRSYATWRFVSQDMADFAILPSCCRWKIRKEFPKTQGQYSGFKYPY
Assay: P2X7 antagonism in recombinant rat P2X7 cells (column headed P2X7 Rat IC50)
Provide the recorded pIC50 for the entries that follow.
# pIC50 is unitless: minus log10 of the molar concentration; print number only

State the recorded pIC50 for this entry: Cc1nc(-c2ccn[nH]2)c2c(n1)[C@H]1CCC[C@@H](C2)N1C(=O)c1cccc(C(F)(F)F)c1Cl [Example 19] 7.91

State the recorded pIC50 for this entry: Cc1nc(-c2cnccn2)c2c(n1)[C@H]1CCC[C@@H](C2)N1C(=O)c1ccc(Cl)c(F)c1Cl [Example 47] 6.61

State the recorded pIC50 for this entry: Cc1nc(-c2ncccn2)c2c(n1)[C@H]1CCC[C@@H](C2)N1C(=O)c1ccnc(C(F)(F)F)c1Cl [Example 42] 6.80

State the recorded pIC50 for this entry: Cc1nc(-c2ccc(F)cc2)c2c(n1)[C@H]1CCC[C@@H](C2)N1C(=O)c1ccnc(C(F)(F)F)c1Cl [Example 52] 7.09

State the recorded pIC50 for this entry: Cc1nc(-c2ccccn2)c2c(n1)[C@H]1CCC[C@@H](C2)N1C(=O)c1ccnc(C(F)(F)F)c1Cl [Example 61] 7.34

State the recorded pIC50 for this entry: Cc1nc(-c2ccn[nH]2)c2c(n1)[C@@H]1CCC[C@H](C2)N1C(=O)c1cccc(Cl)c1Cl [Example 11] 6.02

Measured values drawn from patent US10150766B2 for this set.
